# credit: PubChem BioAssay AID852

# reported IC50; entries follow
target: UniProt:P00748; assay: human FXIIa protease inhibitors, dose response, biochemical, confirmation of 1536-well hits (AID 852); conditions: purified human plasma FXIIa, fluorogenic AMC substrate, 384-well, 2 h
Sequence (P00748 20-372 limits assumed): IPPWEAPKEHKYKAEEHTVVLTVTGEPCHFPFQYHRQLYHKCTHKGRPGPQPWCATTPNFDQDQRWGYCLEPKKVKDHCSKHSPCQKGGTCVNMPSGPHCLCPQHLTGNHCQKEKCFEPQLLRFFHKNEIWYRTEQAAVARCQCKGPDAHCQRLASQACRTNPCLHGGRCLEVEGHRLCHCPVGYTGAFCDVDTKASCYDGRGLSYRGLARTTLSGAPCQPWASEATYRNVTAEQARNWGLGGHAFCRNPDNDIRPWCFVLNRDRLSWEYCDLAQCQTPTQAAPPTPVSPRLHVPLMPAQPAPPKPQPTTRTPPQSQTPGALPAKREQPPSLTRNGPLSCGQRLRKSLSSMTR
Sequence (P00748 373-615 limits assumed): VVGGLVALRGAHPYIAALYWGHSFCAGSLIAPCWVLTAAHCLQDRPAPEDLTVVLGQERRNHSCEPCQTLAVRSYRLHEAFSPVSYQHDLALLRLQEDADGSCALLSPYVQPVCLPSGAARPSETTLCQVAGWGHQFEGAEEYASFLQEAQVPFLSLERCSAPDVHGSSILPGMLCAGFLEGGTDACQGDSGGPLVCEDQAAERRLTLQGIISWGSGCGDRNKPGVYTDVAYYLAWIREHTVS

Below: 2 compounds and their reported IC50.
1. Cc1ccc(C(=O)n2nc(-c3cccnc3)nc2N)cc1    0.796 µM
2. O=C(Oc1ccc2c3c(c(=O)oc2c1)CCC3)c1ccco1    6.22 µM

Here's the next entry for you.
Notebook entry, UniProt:P00748 assay: IC50 of O=C(Oc1ccc(Cl)c2cccnc12)c1ccco1 = ?
21.6 µM
